- System: RXF 393
- protocolDetails: NCI tumour cell line growth inhibition, 48 h
The source made the active and inactive calls. No stated cut-off is given here; in the data, active = GI50 up to about 1.1 µM and inactive = higher.
reportedEndpoint: GI50

1. CCCCc1ccc(Nc2nc(Cl)c3ncn(C4CC(Oc5ccc(C)cc5)C(COc5ccc(C)cc5)O4)c3n2)cc1 (stereo not drawn); > 100 µM (inactive)
2. CO[C@@]12[C@H](COC(N)=O)C3=C(C(=O)C(C)=C(N)C3=O)N1C[C@H]1[C@@H]2N1C (stereo partly drawn); 6.31 µM (inactive)
3. O=C1c2ccccc2C(=O)N1n1c(Cc2ccc([N+](=O)[O-])cc2)n[nH]c1=O; > 100 µM (inactive)
4. COc1ccc(-c2c(C#N)c(S)n(NS(=O)(=O)c3ccc(C)cc3)c(=O)c2C#N)cc1; 17.5 µM (inactive)
5. CC(=O)O[C@H]1/C(=C/c2ccncc2)C[C@H]2[C@@H]3CC=C4C[C@@H](N5CCCC5)CC[C@]4(C)[C@H]3CC[C@]12C; 6.9 µM (inactive)

Look at this compound and give its reported GI50. CC(N)C(C)Cc1ccccc1 (stereo not drawn)
> 100 µM (inactive)

Next: N/C(CSCCSC/C(N)=N/O)=N\O
> 100 µM (inactive)

Try this compound next: CC(=O)C1=C(C)N(c2ccc(C)cc2)C2(O)C=CC(=O)C3C(=O)N(c4ccccc4)C(=O)C132 (stereo not drawn)
20.3 µM (inactive)

Lookup COc1ccc(C2=NN(c3nsc4ccccc34)C(=O)CC2)cc1
> 100 µM (inactive)

Same thing, different compound: CC[C@@H]1C[C@@H]2CN3CCc4c([nH]c5ccc(OC)cc45)C(COC(=O)c4ccc(OC)c(OC)c4)(C2)C13
14.2 µM (inactive)

----------
- System: HT-29
- protocolDetails: NCI tumour cell line growth inhibition, 48 h
Active and inactive are the calls of the source. Rule as the data show it: active = GI50 up to about 1.1 µM and inactive = higher.
Entries and their GI50

Below, 2 molecules whose answers are already recorded.
1. C=CCc1cccc2cc(C(N)=O)c(=N)oc12; > 100 µM (inactive)
2. NC(=O)c1ncn2c1NC(=O)CC2; > 100 µM (inactive)

# query: GI50 of entry NC(=O)C[S+]([O-])CC(N)C(=O)O (stereo unspecified)
> 100 µM (inactive)

Also c1ccc(Nc2nnc(CSc3nc(-c4ccccc4)c(-c4ccccc4)[nH]3)s2)cc1 ?
15.2 µM (inactive)

Input Cc1cc(C)c(N[S+]([O-])c2ccc(Cl)cc2)c(C)c1 (stereo unspecified)
> 100 µM (inactive)

Entry Brc1ccc2c3c1[C@H]1O[C@H]1c1cccc(c1-3)[C@@H]1O[C@H]21 please
8.11 µM (inactive)

----------
- Test system: HCT-116
- protocolDetails: NCI tumour cell line growth inhibition, 48 h
Activity calls are given as the source filed them. Rule as the data show it: active = GI50 up to about 1.1 µM and inactive = higher.
Classes to choose from: active, inactive

Examples from the recorded data:
1. Cc1ccccc1NC(=O)C(=O)CC(=O)c1sc(Nc2ccccc2[N+](=O)[O-])nc1C; inactive
2. CC(=O)C(I(OS(=O)(=O)c1ccc(C)cc1)c1ccccc1)=P(c1ccccc1)(c1ccccc1)c1ccccc1; inactive
3. C=C(C)C(=O)O[C@H]1C[C@@]23O[C@@H]2CCC(=C[C@H]2OC(=O)C(=C)[C@H]12)COC3O (some centres undefined); inactive
4. CCN(CC)CCCNc1ccc([N+](=O)[O-])c2nc3ccc(OC)cc3c(N)c12; active
5. CN1C2(c3ccccc3)c3c(-c4ccccc4)sc(-c4ccccc4)c3C1(c1ccccc1)C1C(=O)N(c3ccccc3)C(=O)C12 (centres undefined); inactive
6. NS(=O)(=O)c1cc(Cl)c(NC(=S)NC(=O)Nc2ccc(Cl)c(Cl)c2)c(Cl)c1; inactive
7. C[C@@H]1C(=O)CC2C(C)(C)CCC[C@]2(C)[C@@]12CC[C@]1(C=COC1)O2 (some centres undefined); inactive
8. CCN(CC)CCCNC(=O)c1cc(-c2nccn2C)nc2ccccc12; inactive

Per the records of this test, what outcome belongs to Cc1nc2c(=O)n(C)c(=O)n(C)c2o1 ?
inactive
